# Test system: Dd2
# Test Protocol: qHTS profiling for inhibitors of Plasmodium falciparum proliferation (AID 504749); note: nearly all actives have a fitted effect of over 60% in size
# Condition Notes: P. falciparum in erythrocytes, SYBR Green DNA, 72 h; series mostly up to 28.7 µM
Records with an inconclusive call do not appear. Activity calls are given as the source filed them. Calls come from the whole dose curve; as a rule, active = well fitted inhibition curve with a large enough effect; inconclusive = small, poorly fitted or top-dose-only effect; inactive = flat fitted curve, though single readings scatter.
Classes to choose from: active, inactive

>  <Compound>
CCCCCCOc1ccccc1C(N)=O

>  <Category Label>
inactive

$$$$
>  <Compound>
NC(=O)C(c1ccccc1)(c1ccccc1)[C@@H]1CCN(CCc2ccc3c(c2)CCO3)C1

>  <Category Label>
active

$$$$
>  <Compound>
CCOC(=O)c1ccccc1O

>  <Category Label>
inactive

$$$$

Read the next record carefully.
## Input Field: outcome | Entry: CN1[C@@H](CC(=O)c2ccccc2)CCC[C@H]1C[C@H](O)c1ccccc1
## Output active
